Data provenance: patent US20250019385A1

assay-method-text: Solubility measurement (DMSO solution precipitation method)
Type: physicochemical
experimental-parameters: aqueous buffer, kinetic from dmso stock, McIlvaine buffer pH 4.5, 24 h, read-out: solubility pH 4.5
Please go through the items and note down their solubility at 24 h.

Provide reported solubility at 24 h for each item, in the same order as listed.
1. C[C@H](Oc1nc(-c2onc3c2CCC[C@@]32CCCc3sc(N)c(C#N)c32)nc2c1n(C)c(=O)n2C1COC1)[C@@H]1CCCN1C [I-24]
2. C[C@H](Oc1nc(-c2onc3c2CCC[C@@]32CCCc3sc(N)c(C#N)c32)nc2c1n(C)c(=O)n2[C@@H]1CCOC1)C12CCCN1CCC2 [I-25]
3. CCn1c(=O)n([C@@H]2CCCOC2)c2nc(-c3onc4c3CCC[C@@]43CCCc4sc(N)c(C#N)c43)nc(OCC34CCCN3CCC4)c21 [I-34]
4. C[C@H](Oc1nc(-c2noc3c2CCC[C@@]32CCCc3sc(N)c(C#N)c32)nc2c1CN(c1ncccn1)[C@@]21CCOC1)[C@@H]1CCCN1C [II-7b]
5. Cc1cc2c(O[C@@H](C)[C@@H]3CCCN3C)nc(-c3onc4c3CCC[C@@]43CCCc4sc(N)c(C#N)c43)nc2n1[C@@H]1CCOC1 [I-40]
6. CC(C)n1c(=O)n([C@@H]2CCOC2)c2nc(-c3onc4c3CCC[C@@]43CCCc4sc(N)c(C#N)c43)nc(O[C@@H](C)[C@@H]3CCCN3C)c21 [I-32]

Output line:
1: > 155 µg/mL; 2: > 155 µg/mL; 3: > 158 µg/mL; 4: 62 µg/mL; 5: > 124 µg/mL; 6: > 155 µg/mL

Provide reported solubility at 24 h for each item, in the same order as listed.
1. C[C@H](Oc1nc(-c2onc3c2CCC[C@@]32CCCc3sc(N)c(C#N)c32)nc2c1n(C)c(=O)n2[C@H]1CO[C@@H](C)C1)[C@@H]1CCCN1C [I-47]
2. C[C@H](Oc1nc(-c2noc3c2CCC[C@@]32CCCc3sc(N)c(C#N)c32)nc2c1CNC[C@]21CCOC1)[C@@H]1CCCN1C [II-15]
3. C[C@H](Oc1nc(-c2noc3c2CCC[C@@]32CCCc3sc(N)c(C#N)c32)nc2c1CN(c1ncccn1)[C@]21CCOC1)[C@@H]1CCCN1C [II-7a]
4. CO[C@@H]1C[C@@H]([C@H](C)Oc2nc(-c3noc4c3CCC[C@@]43CCCc4sc(N)c(C#N)c43)nc3c2n(C)c(=O)n3[C@@]23COC[C@@H]2C3)N(C)C1 [II-6]
5. CO[C@H]1C[C@@H]([C@H](C)Oc2nc(-c3onc4c3CCC[C@@]43CCCc4sc(N)c(C#N)c43)nc3c2n(C)c(=O)n3[C@@H]2CCOC2)N(C)C1 [I-2]
6. Cc1nc2c(O[C@@H](C)[C@@H]3CCCN3C)nc(-c3onc4c3CCC[C@@]43CCCc4sc(N)c(C#N)c43)nc2n1[C@@H]1CCOC1 [I-39]

Output line:
["> 132 µg/mL", "> 147 µg/mL", "65 µg/mL", "> 144 µg/mL", "> 159 µg/mL", "> 147 µg/mL"]
